biological target: anti-H3K9me3 antibody ab8898; assay: peptide microarray binding signal (635 nm), min-max normalized on array (fraction of array maximum); higher = stronger binding; conditions: peptide region: Unmod H2A variant; binder concentration: 1:10,000 dilution
Use peptide microarray binding signal to assign classes; range list: low (below 0.001), intermediate (0.001 to below 0.003), high (0.003 or more)

Worked examples, 10 binders total:
*Q* For this binder, which bin applies? LNKLLGGVTIAQG [Unmod H2A variant L N K L L G G V T I A Q G]
*A* intermediate

*Q* For this binder, which bin applies? KGNYAERIGAGAP [Unmod H2A variant K G N Y A E R I G A G A P]
*A* high

*Q* For this binder, which bin applies? MAAVLEYLTAEIL [Unmod H2A variant M A A V L E Y L T A E I L]
*A* low

*Q* For this binder, which bin applies? RNDEELNKLLGGV [Unmod H2A variant R N D E E L N K L L G G V]
*A* intermediate

*Q* For this binder, which bin applies? SGRGKQGGKARAK [Unmod H2A variant S G R G K Q G G K A R A K]
*A* intermediate

*Q* For this binder, which bin applies? GNASRDNKKTRII [Unmod H2A variant G N A S R D N K K T R I I]
*A* low

*Q* For this binder, which bin applies? YLTAEILELAGNA [Unmod H2A variant Y L T A E I L E L A G N A]
*A* intermediate

*Q* For this binder, which bin applies? RAKSKSRSSRAGL [Unmod H2A variant R A K S K S R S S R A G L]
*A* intermediate

*Q* For this binder, which bin applies? LQLAIRNDEELNK [Unmod H2A variant L Q L A I R N D E E L N K]
*A* high

*Q* For this binder, which bin applies? IQAVLLPKKTESH [Unmod H2A variant I Q A V L L P K K T E S H]
*A* high

Others:
*Q* For this binder, which bin applies? DNKKTRIIPRHLQ [Unmod H2A variant D N K K T R I I P R H L Q]
*A* low

*Q* For this binder, which bin applies? AGLQFPVGRIHRL [Unmod H2A variant A G L Q F P V G R I H R L]
*A* high
